Assay: chemical genetic growth profiling, strain panel (AID 1159580);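 further: tested at 20 µM; growth read once vehicle control cultures reached saturation at 30 °C; 1 = growth at the plate median or of vehicle wells; lower values mean less growth of the strain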
Conditions: S. cerevisiae deletion strains, growth OD, locus YNL020C, strain ARK1, hits give low values
Hit rate of the full screen: of about 5,500 compounds, about 2,000 (36%) were called active. Not shown: some 18% with an inconclusive outcome. The list shows a part of the results.
reported.metric: normalized growth
Answers are plain numbers.

Solved cases below.
O=C(Nc1ccc(Cl)cc1)OCCSc1nc2ccccc2s1: 0.929
Cc1c(-c2ccnn2C(=O)c2ccco2)cnn1-c1ccccc1: 0.931
FC(F)(F)c1cccc(-n2c(CSCc3cccc4ccccc34)n[nH]c2=S)c1: 1
FC(F)(F)c1ccnc(N2CCCN(C(=S)Nc3ccc(Cl)cc3Cl)CC2)n1: 0.966
CCCCCCCCCCCC(=O)NOC(=O)c1c(-c2c(Cl)cccc2Cl)noc1C: 0.915

According to the records, this compound O=c1c2ccccc2[nH]c(=S)n1-c1cccc(C(F)(F)F)c1 displays normalized growth of 0.886
